Test system: Mycobacterium tuberculosis Erdman (pMV306hsp+LuxG13)
Assay: AUC25, normalised area under the dose-response curve up to IC25 (normalised AUC (unitless)); higher = more potent
Conditions: growth medium: cholesterol 0.05 mM; time point: constant time point
Measured AUC25, listed per entry.
measurement.kind: AUC25

- molecule: "CO[C@H]1/C=C/O[C@@]2(C)Oc3c(C)c(O)c4c(O)c(c(/C=N/N5CCN(C6CCCC6)CC5)c(O)c4c3C2=O)NC(=O)/C(C)=C\\C=C\\[C@H](C)[C@H](O)[C@@H](C)[C@@H](O)[C@@H](C)[C@H](OC(C)=O)[C@@H]1C [rifapentine] + CC(=O)NC[C@H]1CN(c2ccc(N3CCSCC3)c(F)c2)C(=O)O1"
  readout.value: 0.0962
- molecule: "CC[C@@H](CO)NCCN[C@@H](CC)CO [ethambutol] + CC(C)=CCC/C(C)=C/CNCCNC1C2CC3CC(C2)CC1C3 [SQ109]"
  readout.value: 0.0769

---

Test system: Mycobacterium tuberculosis Erdman (pMV306hsp+LuxG13)
Experiment: Einf, effect of the drug pair at infinite dose (maximum growth inhibition) (fraction inhibition (0-1)); higher = more potent; extreme values may be limits of the assay
Conditions: growth medium: standard 7H9 OADC glycerol; time point: constant = terminal time point (4.2 d)
measurement.kind: Einf

- molecule: "CC(C)/N=c1\\cc2n(-c3ccc(Cl)cc3)c3ccccc3nc-2cc1Nc1ccc(Cl)cc1 [clofazimine] + CC(C)=CCC/C(C)=C/CNCCNC1C2CC3CC(C2)CC1C3 [SQ109]"
  readout.value: 0.937
- molecule: "NNC(=O)c1ccncc1 [isoniazid] + CC(C)=CCC/C(C)=C/CNCCNC1C2CC3CC(C2)CC1C3 [SQ109]"
  readout.value: 0.858
- molecule: "CC[C@@H](CO)NCCN[C@@H](CC)CO [ethambutol] + CC(C)=CCC/C(C)=C/CNCCNC1C2CC3CC(C2)CC1C3 [SQ109]"
  readout.value: 0.843
- molecule: "COc1nc2ccc(Br)cc2cc1[C@@H](c1ccccc1)[C@@](O)(CCN(C)C)c1cccc2ccccc12 [bedaquiline] + CC(C)=CCC/C(C)=C/CNCCNC1C2CC3CC(C2)CC1C3 [SQ109]"
  readout.value: 0.967
- molecule: "COc1nc2ccc(Br)cc2cc1[C@@H](c1ccccc1)[C@@](O)(CCN(C)C)c1cccc2ccccc12 [bedaquiline] + CC(=O)NC[C@H]1CN(c2ccc(N3CCSCC3)c(F)c2)C(=O)O1 [sutezolid]"
  readout.value: 0.977
- molecule: "CC(C)/N=c1\\cc2n(-c3ccc(Cl)cc3)c3ccccc3nc-2cc1Nc1ccc(Cl)cc1 [clofazimine] + CC(=O)NC[C@H]1CN(c2ccc(N3CCSCC3)c(F)c2)C(=O)O1 [sutezolid]"
  readout.value: 0.967
- molecule: "CC[C@@H](CO)NCCN[C@@H](CC)CO [ethambutol] + CC(=O)NC[C@H]1CN(c2ccc(N3CCSCC3)c(F)c2)C(=O)O1 [sutezolid]"
  readout.value: 0.982
- molecule: "NNC(=O)c1ccncc1 [isoniazid] + CC(=O)NC[C@H]1CN(c2ccc(N3CCSCC3)c(F)c2)C(=O)O1 [sutezolid]"
  readout.value: 0.956
- molecule: "O=[N+]([O-])c1cn2c(n1)OC[C@@H](OCc1ccc(OC(F)(F)F)cc1)C2 [pretomanid] + CC(=O)NC[C@H]1CN(c2ccc(N3CCSCC3)c(F)c2)C(=O)O1"
  readout.value: 0.988
- molecule: "NC(=O)c1cnccn1 [pyrazinamide] + CC(C)=CCC/C(C)=C/CNCCNC1C2CC3CC(C2)CC1C3"
  readout.value: 0.84
- molecule: "COc1c(N2C[C@@H]3CCCN[C@@H]3C2)c(F)cc2c(=O)c(C(=O)O)cn(C3CC3)c12 [moxifloxacin] + CC(=O)NC[C@H]1CN(c2ccc(N3CCSCC3)c(F)c2)C(=O)O1"
  readout.value: 0.969

---

Measured AUC25, listed per entry.
Tested on: Mycobacterium tuberculosis Erdman (pMV306hsp+LuxG13)
Test: AUC25, normalised area under the dose-response curve up to IC25 (normalised AUC (unitless)); higher = more potent
Conditions: growth medium: hypoxic dormancy (butyrate + nitrate), then recovery; time point: terminal time point

- compound: "COc1nc2ccc(Br)cc2cc1[C@@H](c1ccccc1)[C@@](O)(CCN(C)C)c1cccc2ccccc12 [bedaquiline] + CC(C)=CCC/C(C)=C/CNCCNC1C2CC3CC(C2)CC1C3 [SQ109]"
  tested.target: "Mycobacterium tuberculosis Erdman (pMV306hsp+LuxG13)"
  AUC25: 0.0292
- compound: "NC(=O)c1cnccn1 [pyrazinamide] + CC(=O)NC[C@H]1CN(c2ccc(N3CCSCC3)c(F)c2)C(=O)O1 [sutezolid]"
  tested.target: "Mycobacterium tuberculosis Erdman (pMV306hsp+LuxG13)"
  AUC25: 0.0286
- compound: "O=[N+]([O-])c1cn2c(n1)OC[C@@H](OCc1ccc(OC(F)(F)F)cc1)C2 [pretomanid] + CC(=O)NC[C@H]1CN(c2ccc(N3CCSCC3)c(F)c2)C(=O)O1 [sutezolid]"
  tested.target: "Mycobacterium tuberculosis Erdman (pMV306hsp+LuxG13)"
  AUC25: 0.0423
- compound: "NNC(=O)c1ccncc1 [isoniazid] + CC(=O)NC[C@H]1CN(c2ccc(N3CCSCC3)c(F)c2)C(=O)O1 [sutezolid]"
  tested.target: "Mycobacterium tuberculosis Erdman (pMV306hsp+LuxG13)"
  AUC25: 0.0273
- compound: "CO[C@H]1/C=C/O[C@@]2(C)Oc3c(C)c(O)c4c(O)c(c(/C=N/N5CCN(C)CC5)c(O)c4c3C2=O)NC(=O)/C(C)=C\\C=C\\[C@H](C)[C@H](O)[C@@H](C)[C@@H](O)[C@@H](C)[C@H](OC(C)=O)[C@@H]1C [rifampicin] + CC(C)=CCC/C(C)=C/CNCCNC1C2CC3CC(C2)CC1C3 [SQ109]"
  tested.target: "Mycobacterium tuberculosis Erdman (pMV306hsp+LuxG13)"
  AUC25: 0.0342

---

Test system: Mycobacterium tuberculosis Erdman (pMV306hsp+LuxG13)
Test: log2 fractional inhibitory concentration at 50% inhibition (log2 FIC); higher = more antagonistic
Conditions: growth medium: cholesterol 0.2 mM (cholesterol-high); time point: constant time point

- molecule: "O=[N+]([O-])c1cn2c(n1)OC[C@@H](OCc1ccc(OC(F)(F)F)cc1)C2 [pretomanid] + CC(=O)NC[C@H]1CN(c2ccc(N3CCSCC3)c(F)c2)C(=O)O1"
  log2 fractional inhibitory concentration: -0.512
- molecule: "CC[C@@H](CO)NCCN[C@@H](CC)CO [ethambutol] + CC(=O)NC[C@H]1CN(c2ccc(N3CCSCC3)c(F)c2)C(=O)O1 [sutezolid]"
  log2 fractional inhibitory concentration: -0.151
- molecule: "NNC(=O)c1ccncc1 [isoniazid] + CC(=O)NC[C@H]1CN(c2ccc(N3CCSCC3)c(F)c2)C(=O)O1 [sutezolid]"
  log2 fractional inhibitory concentration: 0.0991
- molecule: "CO[C@H]1/C=C/O[C@@]2(C)Oc3c(C)c(O)c4c(O)c(c(/C=N/N5CCN(C6CCCC6)CC5)c(O)c4c3C2=O)NC(=O)/C(C)=C\\C=C\\[C@H](C)[C@H](O)[C@@H](C)[C@@H](O)[C@@H](C)[C@H](OC(C)=O)[C@@H]1C [rifapentine] + CC(=O)NC[C@H]1CN(c2ccc(N3CCSCC3)c(F)c2)C(=O)O1"
  log2 fractional inhibitory concentration: -0.331
- molecule: "NC(=O)c1cnccn1 [pyrazinamide] + CC(=O)NC[C@H]1CN(c2ccc(N3CCSCC3)c(F)c2)C(=O)O1 [sutezolid]"
  log2 fractional inhibitory concentration: 0.242
- molecule: "CC[C@@H](CO)NCCN[C@@H](CC)CO [ethambutol] + CC(C)=CCC/C(C)=C/CNCCNC1C2CC3CC(C2)CC1C3 [SQ109]"
  log2 fractional inhibitory concentration: 0.679
- molecule: "NNC(=O)c1ccncc1 [isoniazid] + CC(C)=CCC/C(C)=C/CNCCNC1C2CC3CC(C2)CC1C3 [SQ109]"
  log2 fractional inhibitory concentration: 0.5
- molecule: "CO[C@H]1/C=C/O[C@@]2(C)Oc3c(C)c(O)c4c(O)c(c(/C=N/N5CCN(C)CC5)c(O)c4c3C2=O)NC(=O)/C(C)=C\\C=C\\[C@H](C)[C@H](O)[C@@H](C)[C@@H](O)[C@@H](C)[C@H](OC(C)=O)[C@@H]1C [rifampicin] + CC(=O)NC[C@H]1CN(c2ccc(N3CCSCC3)c(F)c2)C(=O)O1 [sutezolid]"
  log2 fractional inhibitory concentration: -0.0927
- molecule: "COc1nc2ccc(Br)cc2cc1[C@@H](c1ccccc1)[C@@](O)(CCN(C)C)c1cccc2ccccc12 [bedaquiline] + CC(C)=CCC/C(C)=C/CNCCNC1C2CC3CC(C2)CC1C3 [SQ109]"
  log2 fractional inhibitory concentration: 0.546
- molecule: "COc1nc2ccc(Br)cc2cc1[C@@H](c1ccccc1)[C@@](O)(CCN(C)C)c1cccc2ccccc12 [bedaquiline] + CC(=O)NC[C@H]1CN(c2ccc(N3CCSCC3)c(F)c2)C(=O)O1 [sutezolid]"
  log2 fractional inhibitory concentration: -0.0255
- molecule: "CC(C)/N=c1\\cc2n(-c3ccc(Cl)cc3)c3ccccc3nc-2cc1Nc1ccc(Cl)cc1 [clofazimine] + CC(C)=CCC/C(C)=C/CNCCNC1C2CC3CC(C2)CC1C3 [SQ109]"
  log2 fractional inhibitory concentration: -0.041
- molecule: "COc1c(N2C[C@@H]3CCCN[C@@H]3C2)c(F)cc2c(=O)c(C(=O)O)cn(C3CC3)c12 [moxifloxacin] + CC(=O)NC[C@H]1CN(c2ccc(N3CCSCC3)c(F)c2)C(=O)O1"
  log2 fractional inhibitory concentration: -0.358
- molecule: "CC(C)/N=c1\\cc2n(-c3ccc(Cl)cc3)c3ccccc3nc-2cc1Nc1ccc(Cl)cc1 [clofazimine] + CC(=O)NC[C@H]1CN(c2ccc(N3CCSCC3)c(F)c2)C(=O)O1 [sutezolid]"
  log2 fractional inhibitory concentration: -0.164
- molecule: "CO[C@H]1/C=C/O[C@@]2(C)Oc3c(C)c(O)c4c(O)c(c(/C=N/N5CCN(C)CC5)c(O)c4c3C2=O)NC(=O)/C(C)=C\\C=C\\[C@H](C)[C@H](O)[C@@H](C)[C@@H](O)[C@@H](C)[C@H](OC(C)=O)[C@@H]1C [rifampicin] + CC(C)=CCC/C(C)=C/CNCCNC1C2CC3CC(C2)CC1C3 [SQ109]"
  log2 fractional inhibitory concentration: 0.231
- molecule: "NC(=O)c1cnccn1 [pyrazinamide] + CC(C)=CCC/C(C)=C/CNCCNC1C2CC3CC(C2)CC1C3 [SQ109]"
  log2 fractional inhibitory concentration: 0.707
